Molecular target: VIM-1 (Pseudomonas aeruginosa (strain ATCC 15692 / DSM 22644 / CIP 104116 / JCM 14847 / LMG 12228 / 1C / PRS 101 / PAO1), UniProt A0A0F7KYQ8)
Assay: Enzyme activity: determination of IC50, fluorescence assay with CCF2-FA substrate (VIM-1)
Format: biochemical
Settings: fluorescence assay with CCF2-FA substrate; read-out: VIM-1 IC50
pIC50: −log10 of the molar value.
In this section we review reported pIC50 values for a set of compounds.

compound	pIC50
Cc1ccc(-c2cccc(S(N)(=O)=O)c2-c2nnn[nH]2)cc1	7.24
CS(=O)(=O)Nc1ccc(-c2ccnc(S(N)(=O)=O)c2-c2nn[nH]n2)cc1	7.85
Cn1ncc2cc(-c3cccc(S(N)(=O)=O)c3-c3nn[nH]n3)ccc21	7.47
Cc1ccccc1Cc1cccc(S(N)(=O)=O)c1-c1nnn[nH]1	7.79
NC1CC(N2CCC(c3ccc(-c4ccc(C(F)(F)F)c(S(N)(=O)=O)c4-c4nnn[nH]4)cc3)CC2)C1 (centres unmarked)	8.14
NS(=O)(=O)c1cccc(-c2ccco2)c1-c1nn[nH]n1	5.94
Cc1ccc(-c2ccnc(S(N)(=O)=O)c2-c2nnn[nH]2)cc1	5.89
N#Cc1ccccc1Cc1cccc(S(N)(=O)=O)c1-c1nnn[nH]1	7.73
CC(C)(C)OC(=O)N1CCN(c2ccc(-c3cccc(S(N)(=O)=O)c3-c3nn[nH]n3)cc2)CC1	6.31
NS(=O)(=O)c1cccc(-c2ccc3c(c2)CCCO3)c1-c1nn[nH]n1	7.55
Nc1nc2c(-c3cccc(S(N)(=O)=O)c3-c3nnn[nH]3)cccc2s1	7.96
NS(=O)(=O)c1nccc(N2CCC(n3ccnc3)CC2)c1-c1nnn[nH]1	6.47
NS(=O)(=O)c1cccc(-c2cnc3ccccc3c2)c1-c1nnn[nH]1	7.94
COc1cncc(-c2cccc(S(N)(=O)=O)c2-c2nn[nH]n2)n1	6.25
NCCC1CCC(N2CCC(c3ccc(-c4ccc(C(F)(F)F)c(S(N)(=O)=O)c4-c4nnn[nH]4)cc3)CC2)CC1 (centres unmarked)	8.36
NS(=O)(=O)c1cccc(-c2ccc(-n3nccn3)cc2)c1-c1nn[nH]n1	7.25
NS(=O)(=O)c1nccc(N2CCC(N3CCNCC3)CC2)c1-c1nnn[nH]1	6.58
